# System: PXR homodimer (NR concentration 270 nM)
# method_summary: PBM binding z-score (relative to random genomic background probes); higher = stronger binding; sequences stand for … in GC…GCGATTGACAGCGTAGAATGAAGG
attribute_measured: PBM binding z-score

Check out these entries, answers already filled in.
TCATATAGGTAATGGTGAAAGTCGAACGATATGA :: -0.311
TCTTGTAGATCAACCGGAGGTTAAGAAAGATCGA :: 0.000543
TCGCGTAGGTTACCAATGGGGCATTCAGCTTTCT :: -1.03
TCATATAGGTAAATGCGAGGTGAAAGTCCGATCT :: 0.0797
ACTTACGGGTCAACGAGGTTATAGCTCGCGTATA :: 2.82
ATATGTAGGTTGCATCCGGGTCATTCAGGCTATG :: 1.85
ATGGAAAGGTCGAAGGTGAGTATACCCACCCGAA :: 0.649
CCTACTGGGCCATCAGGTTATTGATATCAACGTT :: -0.0218

Batch: PBM binding z-score for all items listed.
1. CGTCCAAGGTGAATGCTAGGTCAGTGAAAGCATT
2. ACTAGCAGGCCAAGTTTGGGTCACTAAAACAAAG

-0.645
-0.272

Batch: PBM binding z-score for all items listed.
1. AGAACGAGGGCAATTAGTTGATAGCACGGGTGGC
2. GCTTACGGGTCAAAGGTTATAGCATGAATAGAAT
3. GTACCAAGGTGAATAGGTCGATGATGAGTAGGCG

1.02
0.29
0.109

Batch: PBM binding z-score for all items listed.
1. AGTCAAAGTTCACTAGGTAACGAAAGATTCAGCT
2. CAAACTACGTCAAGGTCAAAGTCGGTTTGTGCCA
3. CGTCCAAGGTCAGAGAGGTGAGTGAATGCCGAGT
4. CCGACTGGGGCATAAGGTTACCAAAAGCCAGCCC
5. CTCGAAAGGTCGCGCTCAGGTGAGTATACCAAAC
6. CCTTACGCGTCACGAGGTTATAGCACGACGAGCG
7. TCTTGTAGATAAAAGGTTAAGAAAGCCGAAGCCT

1. 2.41
2. 2.94
3. 1.96
4. -0.64
5. -0.145
6. 0.532
7. 0.0184

Batch: PBM binding z-score for all items listed.
1. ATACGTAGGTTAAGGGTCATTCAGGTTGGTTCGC
2. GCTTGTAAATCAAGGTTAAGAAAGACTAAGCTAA
3. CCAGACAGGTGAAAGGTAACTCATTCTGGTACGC

2.65
-0.123
0.37
